Target protein (sequence): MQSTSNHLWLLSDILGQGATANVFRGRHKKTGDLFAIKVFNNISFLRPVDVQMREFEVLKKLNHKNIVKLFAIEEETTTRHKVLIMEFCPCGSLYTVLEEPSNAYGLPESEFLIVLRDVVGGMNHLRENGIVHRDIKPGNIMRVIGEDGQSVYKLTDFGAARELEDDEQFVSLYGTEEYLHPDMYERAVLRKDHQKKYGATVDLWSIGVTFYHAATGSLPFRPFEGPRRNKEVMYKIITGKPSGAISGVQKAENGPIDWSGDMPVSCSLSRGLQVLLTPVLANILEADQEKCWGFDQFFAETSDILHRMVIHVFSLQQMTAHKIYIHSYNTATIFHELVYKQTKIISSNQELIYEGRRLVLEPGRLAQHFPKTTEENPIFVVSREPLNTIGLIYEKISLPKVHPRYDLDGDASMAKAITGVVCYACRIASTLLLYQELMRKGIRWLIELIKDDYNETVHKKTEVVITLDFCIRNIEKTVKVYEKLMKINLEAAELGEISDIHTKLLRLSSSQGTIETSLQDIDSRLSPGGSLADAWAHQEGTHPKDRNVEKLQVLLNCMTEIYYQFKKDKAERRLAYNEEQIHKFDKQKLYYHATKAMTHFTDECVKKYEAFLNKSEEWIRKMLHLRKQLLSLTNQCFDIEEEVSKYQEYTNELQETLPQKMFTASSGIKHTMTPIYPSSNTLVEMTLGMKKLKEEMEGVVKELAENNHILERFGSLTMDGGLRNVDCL

- mol: "Nc1ccc(-c2ccnc(Nc3ccc(F)cc3)n2)c2c1C(=O)NC2"
  unit.annotation: "nM"
  IC50: 43
- mol: "CC(=O)Nc1cccc(Nc2nccc(-c3ccc(N)c4c3CNC4=O)n2)c1"
  unit.annotation: "nM"
  IC50: 27
- mol: "Nc1ccc(-c2ccnc(Nc3ccccc3)n2)c2c1C(=O)NC2"
  unit.annotation: "nM"
  IC50: 90
